target-entity: HGFR (c-MET) (Homo sapiens, UniProt P08581)
Construct: purchased Upstate 14-526
Sequence (P08581 25-1390): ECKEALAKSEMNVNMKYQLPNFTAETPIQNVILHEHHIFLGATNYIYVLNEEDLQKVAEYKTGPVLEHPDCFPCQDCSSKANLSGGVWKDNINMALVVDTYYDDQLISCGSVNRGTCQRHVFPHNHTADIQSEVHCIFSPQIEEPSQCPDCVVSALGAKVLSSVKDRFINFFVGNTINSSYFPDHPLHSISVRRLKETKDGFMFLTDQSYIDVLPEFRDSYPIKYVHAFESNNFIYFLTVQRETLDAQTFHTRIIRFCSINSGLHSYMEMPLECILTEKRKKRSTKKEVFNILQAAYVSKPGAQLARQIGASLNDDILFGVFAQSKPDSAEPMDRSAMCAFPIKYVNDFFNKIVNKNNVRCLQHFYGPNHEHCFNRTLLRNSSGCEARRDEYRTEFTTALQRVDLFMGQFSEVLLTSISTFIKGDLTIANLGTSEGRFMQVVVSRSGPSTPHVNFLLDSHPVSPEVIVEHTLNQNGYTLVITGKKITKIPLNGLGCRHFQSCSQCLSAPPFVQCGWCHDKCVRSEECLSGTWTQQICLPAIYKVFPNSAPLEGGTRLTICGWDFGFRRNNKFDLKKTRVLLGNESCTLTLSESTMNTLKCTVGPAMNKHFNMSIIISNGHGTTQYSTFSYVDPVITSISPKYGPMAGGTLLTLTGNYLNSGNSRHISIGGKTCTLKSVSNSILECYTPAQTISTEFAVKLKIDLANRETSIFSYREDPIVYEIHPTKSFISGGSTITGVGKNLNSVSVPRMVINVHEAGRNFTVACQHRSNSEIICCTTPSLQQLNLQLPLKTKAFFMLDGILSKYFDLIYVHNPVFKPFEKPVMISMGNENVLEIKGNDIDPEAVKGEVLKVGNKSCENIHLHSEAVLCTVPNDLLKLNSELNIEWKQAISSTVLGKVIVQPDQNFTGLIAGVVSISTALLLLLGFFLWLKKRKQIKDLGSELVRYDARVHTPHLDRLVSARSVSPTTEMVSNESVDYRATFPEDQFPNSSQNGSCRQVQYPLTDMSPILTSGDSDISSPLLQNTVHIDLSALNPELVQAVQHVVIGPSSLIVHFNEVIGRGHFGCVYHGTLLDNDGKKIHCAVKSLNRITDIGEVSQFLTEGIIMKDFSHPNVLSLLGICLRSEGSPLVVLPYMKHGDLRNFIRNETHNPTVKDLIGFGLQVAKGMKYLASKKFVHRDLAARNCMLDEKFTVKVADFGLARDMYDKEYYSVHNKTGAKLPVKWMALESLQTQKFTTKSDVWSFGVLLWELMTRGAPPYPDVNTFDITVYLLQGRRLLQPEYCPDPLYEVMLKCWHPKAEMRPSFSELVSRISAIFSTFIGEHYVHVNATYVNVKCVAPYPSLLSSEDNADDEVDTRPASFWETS
protocol-details: HGFR continuous-coupled spectrophotometric assay (Ki and % inhibition)
Format: biochemical
condition-info: read-out: % (inhibition) at 1 μM (printed in the Met IC50 column), at 1 μM
Okay, here is how we bin by inhibition at 1 µM: LOW: < 2%; MID: ≥ 2% and < 10%; HIGH: ≥ 10%

Which inhibition at 1 µM band matches CC(Oc1cc(CNC(=O)N2CCC[C@@H]2CN2CCCC2)cnc1N)c1c(Cl)ccc(F)c1Cl (some centres unmarked) ?
LOW

Further, for COc1c(F)cccc1C(C)Oc1cc(-c2ccc(C(=O)N3C[C@@H](C)N[C@@H](C)C3)cc2)cnc1N (some centres unmarked) ?
LOW

Now this one: CC(Oc1cc(CNS(C)(=O)=O)cnc1N)c1c(Cl)ccc(F)c1Cl (centres unmarked)
LOW

Likewise for CC(Oc1cc(-c2ccc(C(=O)NCCN3CCOCC3)cc2)cnc1N)c1cccc(F)c1C(F)(F)F (centres unmarked) ?
HIGH

Same for CC(Oc1cc(CN)cnc1N)c1c(Cl)ccc(F)c1Cl (centres unmarked)
LOW

Query CC(Oc1cc(-c2ccc(C(=O)NCCN3CCCC3)cc2)cnc1N)c1cccc(F)c1C(F)(F)F (centres unmarked) next
MID

CC(Oc1cc(Br)cnc1N)c1cccc(F)c1Cl (centres unmarked) , same question.
LOW

Try "COc1c(F)cccc1COc1cc(Br)cnc1N" next.
MID

Next molecule up: CC(Oc1cc(C#N)cnc1N)c1c(Cl)ccc(C#N)c1Cl (centres unmarked)
MID

Next: CC(Oc1cc(-c2ccc(C(=O)N3CCC[C@H]3CN3CCCC3)cc2)cnc1N)c1cccc(F)c1C(F)(F)F (some centres unmarked)
HIGH

What would you report for CC(Oc1cc(-c2ccc(C(=O)NCCCN3CCCC3)cc2)cnc1N)c1cccc(F)c1C(F)(F)F (centres unmarked) ?
MID

Then CC(Oc1cc(-c2ccc(C(=O)N3CCN(C)CC3)cc2)cnc1N)c1cccc(F)c1C(F)(F)F (centres unmarked) ?
HIGH

Then this molecule: CC(Oc1cc(-c2ccc(C(=O)NC3CCN(C)CC3)cc2)cnc1N)c1cccc(F)c1C(F)(F)F (centres unmarked)
HIGH

Again, but for "COc1c(F)cccc1COc1cc(-c2ccc(C(=O)N3C[C@@H](C)N[C@@H](C)C3)cc2)cnc1N"
MID

// query: Cc1ccc(S(=O)(=O)NCc2cnc(N)c(OC(C)c3c(Cl)ccc(F)c3Cl)c2)cc1 (centres unmarked)
MID

Quick one: CC(Oc1cc(-c2ccc(C(=O)N3CCC(N4CCCC4)CC3)cc2)cnc1N)c1cccc(F)c1C(F)(F)F (centres unmarked)
HIGH

And what about the molecule COc1c(F)cccc1C(C)Oc1cc(Br)cnc1N (centres unmarked) ?
MID

Please give the result for CC(Oc1cc(-c2ccc(C(=O)N3CCC[C@@H]3CN3CCCC3)cc2)cnc1N)c1cccc(F)c1C(F)(F)F (some centres unmarked) too.
HIGH

====

target-entity: GST fusion protein containing the Met kinase domain (Homo sapiens, UniProt P08581)
Construct: Purified GST fusion protein containing the Met kinase domain, SUGEN, Inc
Sequence (P08581 1078-1345 limits assumed): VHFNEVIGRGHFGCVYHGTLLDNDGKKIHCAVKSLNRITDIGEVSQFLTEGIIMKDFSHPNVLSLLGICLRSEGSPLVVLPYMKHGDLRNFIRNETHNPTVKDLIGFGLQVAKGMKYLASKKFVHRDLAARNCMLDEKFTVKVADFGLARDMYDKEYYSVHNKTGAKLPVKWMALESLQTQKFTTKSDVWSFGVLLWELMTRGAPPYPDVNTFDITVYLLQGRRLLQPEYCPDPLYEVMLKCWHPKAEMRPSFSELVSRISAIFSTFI
protocol-details: MET transphosphorylation assay (ELISA, poly(glu-tyr) substrate)
Type: biochemical
condition-info: Table 1; several values in one cell are separated by /
pIC50: −log10 of the molar value.
observation-type: pIC50

Could you tell me which pIC50 is on file for Nc1ncc(Br)cc1OCc1c(F)cccc1Cl [I(e)] ?
< 4.70
